test: GST conjugation activity with Atrazine (HPLC); type: biochemical; conditions: 0.4 mM electrophilic substrate, 4 mM glutathione, 0.1 M MOPS pH 7.0, corrected for uncatalyzed reaction
Would you kindly list Activity of soybean GST enzyme, Atrazine for each of these molecules?

[
  {
    "MOLECULE": "GST-A: soybean type III GST encoded by cDNA insert in clone GSTa (protein) MSDEVVLLDFWPSPFGMRVRIALAEKGIKYEYKEEDLRNKSPLLLQMNPVHKKIPVLIHNGKPICESLIAVQYIEEVWNDRNPLLPSDPYQRAQTRFWADYVDKKIYDLGRKIWTSKGEEKEAAKKEFIEALKLLEEQLGDKTYFGGDNLGFVDIALVPFYTWFKAYETFGTLNIEECPKFIAWAKRCLQKESVAKSLPDQQKVYEFIMDLRKKLGIE",
    "Activity of soybean GST enzyme, Atrazine": "0.03 nmol/min/mg"
  }
]

Turning now to a further molecule:
Asked: Can you look up the measured Activity of soybean GST enzyme, Atrazine of se6.pk0037.h4: soybean type III GST encoded by cDNA insert in clone se6.pk0037.h4, expressed in E. coli (protein) MAATQEDVTLLGVVGSPFVCRVQIALKLKGIECKFLEENLANKSDLLLKSNPVYKKVPVFIHNEKPIAESLVIVEYIDETWKNNPILPSDPYQRSFARFWSKFIDDKIVGASWKSVFTVDEKEREKNVEESLEALQFLENELQDKRFFGGDEFGFVDIAGVFIAFSIPIFQEVAGLQLFTSEKFPKLFKWSQELINHPVVKDVLPPREPLFAFFKSLYESLSASK for me?
Given back: 0.19 nmol/min/mg

Every entry's value here was drawn from patent US6168954A.
